Source of measurements: PubChem BioAssay AID2732

Please provide measured inhibition for the entries that follow.
assay-explanation: blockers of ER-stress CHOP reporter expression – cell-based, unfolded protein response, luciferase reporter, primary screen (AID 2732);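 also: 0% = tunicamycin plus vehicle and 100% = wells without tunicamycin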
test-conditions: CHO-K1 CHOP-promoter luciferase, tunicamycin-induced, 15-18 h; at 10 µM; active compounds read high
The campaign covered roughly 220,000 compounds. About 8,200 (3.7%) were called active. The list comes from a sample in which actives are over-represented; it also holds close analogues and randomly drawn compounds.
Give bare numbers, in %.

Previously resolved entries follow.
compound: CCN1/C(=C/c2ccc3ccc(C)cc3[n+]2CC)Sc2ccccc21
inhibition (%): 73
--
compound: COCc1cc(=O)oc2cc(NS(=O)(=O)c3ccc(C)cc3)ccc12
inhibition (%): 9.01
--
compound: Cc1cccc(NC(=O)c2sc(-c3ccccc3)nc2-c2ccc([N+](=O)[O-])cc2)c1
inhibition (%): 31.6

Consider the additional compound presented here.
Please supply the value of reported inhibition for the item O=[N+]([O-])c1ccc2c(c1)C(O)n1nc(-c3ccccc3)nc1S2 (centres undefined)
37.2
